- Test system: CCRIS mutagenicity, Ames/micronucleus/aberration tests
- procedure text: CCRIS mutagenicity studies
- assay context: Test System: AMES SALMONELLA TYPHIMURIUM; Strain/Indicator: TA97; Metabolic Activation: RAT, LIVER, S-9, AROCLOR 1254 (10%); Method: PREINCUBATION
Calls of active or inactive are those of the source. The rule behind the calls is not given here.
Classes used: true (1) for active, false (0) for inactive

In [3]: df
Out[3]:
                                   compound      group
0                               ClCc1ccccc1  false (0)
1     CCCCC(CC)COCC1CO1 (centres undefined)  false (0)
2  O=[N+]([O-])c1ccc(Nc2ccc(O)cc2)c([N+](=O)[O-])c1  false (0)
3               Cc1cc(-c2ccc(N)c(C)c2)ccc1N  false (0)
4                              Nc1cccc(N)c1   true (1)
5                       Nc1c(Cl)cc(Cl)cc1Cl  false (0)
6                      CN(C)c1ccc(N(C)C)cc1   true (1)
7                                  CC1CCCC1  false (0)
8  CCCCCCCCCCCCCCCCC1CO1 (centres undefined)  false (0)
